# studyTarget: T1R1/T1R3 receptor (Felis catus)
# testDetails: Activation of T1R1/T1R3 receptor by transmembrane compounds and nucleotide derivatives, conducted as in Examples 1, 2 and 5 (Example 7)
# Type: cell-based, cat
# conditionInfo: +IMP (0.2 mM)
measuredAttribute: Max resp ΔF/F +IMP (0.2 mM)

Example entries and their recorded answers appear below.
- molecule: "CC(=O)Nc1ccc(C(=O)Nc2cc(-c3ccccc3)nn2CCO)cc1"
  Max resp ΔF/F +IMP (0.2 mM): "0.4575 ΔF/F"
- molecule: "O=C(NCCCCNC(=O)c1cccnc1)c1cccnc1 [N,N′-(butane-1,4-diyl)dinicotinamide]"
  Max resp ΔF/F +IMP (0.2 mM): "0.3825 ΔF/F"
- molecule: "N[C@@H](CS)C(=O)O [L-Cysteine, reference compound]"
  Max resp ΔF/F +IMP (0.2 mM): "0.5800 ΔF/F"

INPUT: Tell me the measured Max resp ΔF/F +IMP (0.2 mM) of O=C(NCCc1ccccc1)c1ccc2c(c1)OCO2 , please.
OUTPUT: 0.7150 ΔF/F

INPUT: Can you look up the measured Max resp ΔF/F +IMP (0.2 mM) of O=C(NCCc1c[nH]c2ccccc12)c1cccnc1 [N-(2-(1H-indol-3-yl)ethyl)nicotinamide, N-(2-(1H-Indol-3-yl)ethyl)nicotinamide] for me?
OUTPUT: 1.3225 ΔF/F

INPUT: Looking for the measured Max resp ΔF/F +IMP (0.2 mM) of COC(=O)[C@H](Cc1ccccc1)NCc1ccccc1 [N-Benzyl-L-phenylalanine methyl ester] , can you help?
OUTPUT: 2.2500 ΔF/F

====

Below: a set of entries, each annotated with reported pEC50.
# studyTarget: cat T1R1/T1R3 receptor (Felis catus)
# testDetails: cell-based
# Type: cell-based
# conditionInfo: in the presence of 20 mM alanine; read-out: EC50- with Ala
Where a name gives a salt, the structure may show the parent alone.
Schema: pEC50 number; meaning minus log10 of the concentration expressed in molar units.

Known results for compounds:
- compound: "O=P(O)(O)OC[C@H]1O[C@@H](n2cnc3c(S)ncnc32)[C@H](O)[C@@H]1O [6-Thioinosine Phosphate]"
  measuredAttribute: "pEC50"
  number: 4.70
- compound: "Nc1ncnc2c1ncn2[C@H]1CC(OP(=O)(O)O)[C@@H](COP(=O)(O)O)O1 (stereo in doubt) [2′-Deoxyadenosine-3′,5′-O-bisphosphate, 2′-deoxyadenosine-3′, 5′-O-bisphosphate]"
  measuredAttribute: "pEC50"
  number: 4.70
- compound: "O=c1nc[nH]c2c1ncn2C1O[C@H](COP(=O)(O)OP(=O)(O)OP(=O)(O)O)[C@@H](O)[C@H]1O (some centres unmarked) [trisodium salt]"
  measuredAttribute: "pEC50"
  number: 4.10
- compound: "CNc1ncnc2c1ncn2[C@@H]1O[C@H](COP(=O)(O)O)[C@@H](O)[C@H]1O [N6-Methyladenosine 5′-monophosphate]"
  measuredAttribute: "pEC50"
  number: 4.10

INPUT: # query: pEC50 of entry O=P(O)(O)OC[C@H]1O[C@@H](n2cnc3cncnc32)[C@H](O)[C@@H]1O [Purine riboside-5′-O-monophosphate, reference compound]
OUTPUT: 4.70

====

# studyTarget: T1R1/T1R3 receptor (Felis catus, UniProt E3UMS2)
# testDetails: Activation of T1R1/T1R3 receptor by transmembrane compounds alone or with alanine, IMP, GMP, phenylalanine; HEK293 cells, calcium fluorescence (Example 5)
# Assay type: cell-based, cat
# conditionInfo: +IMP (0.2 mM)
measuredAttribute: +IMP (0.2 mM) Max resp % of Ala

- molecule: "CCCC(CCC)C(=O)Nc1ccc2c(c1)OCO2"
  +IMP (0.2 mM) Max resp % of Ala: "108.0 % of Ala"
- molecule: "CCCC(C)NC(=O)/C=C/c1ccc(OC)c(OC)c1 (stereo not drawn)"
  +IMP (0.2 mM) Max resp % of Ala: "86.9 % of Ala"
- molecule: "CCC(CC)NC(=O)c1ccc(OC)c(OC)c1 [3,4-dimethoxy-N-(pentan-3-yl)benzamide]"
  +IMP (0.2 mM) Max resp % of Ala: "81.0 % of Ala"
- molecule: "COC(=O)C(NC(=O)/C=C/c1cccs1)C(C)C (stereo not drawn)"
  +IMP (0.2 mM) Max resp % of Ala: "59.9 % of Ala"
- molecule: "O=C(CN1C(=O)C(=O)N(Cc2ccccc2)C1=O)c1ccccc1"
  +IMP (0.2 mM) Max resp % of Ala: "135.7 % of Ala"

INPUT: Entry under review: CCC(CC)NC(=O)c1ccc(Br)o1 . Reported +IMP (0.2 mM) Max resp % of Ala?
OUTPUT: 149.6 % of Ala

src = patent US11185100B2
